system: Enterobacter cloacae clinical strains; assay type: cell-based; set-up: unit: μg/ml; settings: Enterobacter cloacae clinical strain 5; microdilution, Muller Hinton broth-cation adjusted, 0.02% BSA, 0.2% acetic acid
Square brackets hold non-standard residues; d marks the D form. Peptide text beside a SMILES is read from it.
MEASURED_QUANTITY: Minimum inhibitory concentration

Example entries and their recorded answers appear below.
MOLECULE	TARGET_ENTITY	RECORDED_VALUE
CC(C)C[C@@H](NC(=O)[C@@H](CCCCN)NC(=O)[C@@H](CCCCN)NC(=O)[C@@H](Cc1ccccc1)NC(=O)[C@@H](CC(C)C)NC(=O)[C@@H](Cc1c[nH]c2ccccc12)NC(=O)[C@@H](CCCNC(=N)N)NC(=O)[C@@H](Cc1c[nH]c2ccccc12)NC(=O)[C@@H](CCCCN)NC(=O)[C@@H](CCCNC(=N)N)NC(=O)[C@H](N)CCCCN)C(=O)O [Chain310D] (H-[dK][dR][dK][dW][dR][dW][dL][dF][dK][dK][dL]-OH)	Enterobacter cloacae clinical strains	16
CC[C@@H](C)[C@@H](N)C(=O)N[C@H](Cc1c[nH]c2ccccc12)C(=O)N[C@H](CCCCN)C(=O)N[C@H](CCCNC(=N)N)C(=O)N[C@H](Cc1ccccc1)C(=O)N[C@H](CCCNC(=N)N)C(=O)N[C@H](CC(C)C)C(=O)N[C@H](Cc1ccccc1)C(=O)N[C@H](CCCCN)C(=O)N[C@H](CCCCN)C(=O)N[C@H](Cc1c[nH]c2ccccc12)C(=O)O [Chain304D] (H-[dI][dW][dK][dR][dF][dR][dL][dF][dK][dK][dW]-OH)	Enterobacter cloacae clinical strains	32

Please indicate recorded Minimum inhibitory concentration of CC(C)C[C@@H](NC(=O)[C@H](N)CCCCN)C(=O)N[C@H](CCCCN)C(=O)N[C@H](Cc1c[nH]c2ccccc12)C(=O)N[C@H](Cc1ccccc1)C(=O)N[C@H](Cc1c[nH]c2ccccc12)C(=O)N[C@H](CC(C)C)C(=O)N[C@H](Cc1ccccc1)C(=O)N[C@H](CCCCN)C(=O)N[C@H](CCCCN)C(=O)N[C@H](CCCNC(=N)N)C(=O)O [Chain311D] (H-[dK][dL][dK][dW][dF][dW][dL][dF][dK][dK][dR]-OH) measured with Enterobacter cloacae clinical strains.
2

Please indicate recorded Minimum inhibitory concentration of CC[C@@H](C)[C@@H](NC(=O)[C@@H](CC(C)C)NC(=O)[C@@H](CCCNC(=N)N)NC(=O)[C@H](N)CCCNC(=N)N)C(=O)N[C@H](Cc1c[nH]c2ccccc12)C(=O)N[C@H](CCCNC(=N)N)C(=O)N[C@H](CCCNC(=N)N)C(=O)N[C@H](Cc1ccccc1)C(=O)N[C@H](CCCCN)C(=O)N[C@H](Cc1c[nH]c2ccccc12)C(=O)N[C@H](CC(C)C)C(=O)N[C@H](CCCNC(=N)N)C(=O)O [Chain204D] (H-[dR][dR][dL][dI][dW][dR][dR][dF][dK][dW][dL][dR]-OH) measured with Enterobacter cloacae clinical strains.
2

---

Documented Minimum inhibitory concentration across a set of compounds
tested on: Candida albicans clinical strains; experiment: MIC, clinical yeast strains; format: cell-based; parameters: unit: μg/ml; conditions: Candida albicans clinical yeast strain 5
Square brackets hold non-standard residues; d marks the D form. Peptide text beside a SMILES is read from it.

COMPOUND	Minimum inhibitory concentration
CC(C)C[C@@H](NC(=O)[C@H](N)CCCNC(=N)N)C(=O)N[C@H](CCCCN)C(=O)N[C@H](CCCNC(=N)N)C(=O)N[C@H](Cc1c[nH]c2ccccc12)C(=O)N[C@H](CCCNC(=N)N)C(=O)N[C@H](CC(C)C)C(=O)N[C@H](Cc1ccccc1)C(=O)N[C@H](CCCNC(=N)N)C(=O)N[C@H](CCCCN)C(=O)N[C@H](CCCNC(=N)N)C(=O)O [Chain306D] (H-[dR][dL][dK][dR][dW][dR][dL][dF][dR][dK][dR]-OH)	16

Recall and state the measured Minimum inhibitory concentration for CC[C@@H](C)[C@@H](NC(=O)[C@@H](CC(C)C)NC(=O)[C@@H](CCCNC(=N)N)NC(=O)[C@H](N)CCCNC(=N)N)C(=O)N[C@H](Cc1c[nH]c2ccccc12)C(=O)N[C@H](CCCNC(=N)N)C(=O)N[C@H](CCCNC(=N)N)C(=O)N[C@H](Cc1ccccc1)C(=O)N[C@H](CCCCN)C(=O)N[C@H](Cc1c[nH]c2ccccc12)C(=O)N[C@H](CC(C)C)C(=O)N[C@H](CCCNC(=N)N)C(=O)O [Chain204D] (H-[dR][dR][dL][dI][dW][dR][dR][dF][dK][dW][dL][dR]-OH) .
8
